All figures here come from PubChem BioAssay (NCI).

Can you tell me TGI for the items I'm about to list?
- System: SK-MEL-28 melanoma
- TEST NAME: NCI tumour cell line growth inhibition, 48 h

Which TGI reading was recorded for the compound CCN=C(N)CSS(=O)(=O)O ? > 100 µM

Param item = N=C1SCCS1 ; retrieve measured TGI. > 100 µM

So what's the measured TGI for this one? NC(=NCc1ccccc1)N/N=C\c1ccnc2ccccc12 25.1 µM

Give the measured TGI of c1cc(-c2ccc(Oc3ccc(-c4ccncc4)cc3)cc2)ccn1 . > 95.1 µM

What does the record list as TGI for CC(=O)NNc1nc(C)c(C(/C=C/c2ccc3c(c2)OCO3)=N/NC(=O)c2ccncc2)s1 ? > 100 µM

Reported TGI for c1ccc2c(-c3ccnc(-c4c[nH]c5ccccc45)n3)c[nH]c2c1 : what is it? > 100 µM

# lookup: TGI of CCOP(=O)(OCC)OC1CC(n2cnc3c(N(CC)CC)ncnc32)OC1CO[Si](C)(C)C(C)(C)C (configuration not stated) 36.3 µM

Can you share its TGI? I mean this compound: CC1C2CC(CC2=O)C1(C)C (configuration not stated) > 100 µM

I'd like to know its TGI. The compound in question is CCOC(=O)c1cc(NC(=O)c2ccccc2)c(=O)n2c(cc3c(Cl)cccc32)c1O > 100 µM

Consider the compound C/C=C(\C)C(=O)O[C@@H]1C=CC(=O)O[C@H]1COC(=O)[C@H](C)O and give its measured TGI. 27.9 µM

Value lookup for TGI; key = Nc1cc2c3c(cccc3c1)C(=O)N(CCN1CCN(CCN3C(=O)c4cccc5cc(N)cc(c45)C3=O)CC1)C2=O > 100 µM

Param item = O=C(c1no[n+]([O-])c1C(=O)c1csc2ccccc12)c1csc2ccccc12 ; retrieve measured TGI. 11 µM

Query (compound): Cc1c(O)c(OC2OC(CO)C(O)C(O)C2O)cc2c1CC[C@@H]1C2(C)C(=O)C[C@]2(C)[C@@H]([C@@](C)(O)C(O)CCC(C)(C)O)[C@H](O)C[C@@]12C (some centres not stated) ; field requested: TGI > 100 µM

// TGI lookup, key: COc1ccc(C(=O)Nc2ccccc2)cc1[N+](=O)[O-] > 100 µM

Which TGI reading was recorded for the compound C[CH2][Sn]([CH2]C)([O]C(=O)c1cc(OC)c(OC)c(OC)c1)[O][Sn]([CH2]C)([CH2]C)[O]C(=O)c1cc(OC)c(OC)c(OC)c1 ? 33.4 µM

Fill blank: measured TGI of the compound CCC/C(Cl)=N/OC(=O)Nc1cccc(F)c1 is ____. 9.82 µM

Tell me the measured TGI of COC(=O)[C@@H](COC(=O)/C=C/c1ccc(OC(C)=O)c(OC(C)=O)c1)NC(=O)/C=C/c1ccc(OC(C)=O)c(OC(C)=O)c1 , please. > 100 µM

// query TGI value for entry O=[N+]([O-])c1ccc(N=Nc2c(O)[nH]c3ccc(Br)cc23)c([N+](=O)[O-])c1 10.3 µM

Reported TGI, compound CC1(C)CC(C2CC(C)(C)CC(C)(C)[C@H]2O)[C@@H](O)C(C)(C)C1 (some centres not stated) : ____ > 100 µM

Fill in: TGI of O=C(/C=C/c1cccnc1)/C=C/c1cccnc1 is ___ 4.02 µM

Param item = CCCCCCCCCCCCCCCc1ccc(C(=O)C[n+]2ccccc2)cc1 ; retrieve measured TGI. 2.99 µM

Returns the measured TGI for the input compound. Input: CC(=O)Nc1ccccc1S(=O)(=O)c1c(-c2c(C)c(Cl)c(C)c(Cl)c2C)noc1C > 100 µM

What does the data say about its TGI? Entry: COc1cc([C@@H]2c3cc4c(cc3[C@@H](N=Cc3ccc(C(=O)O[C@H]5C[C@H]6OC[C@@]6(OC(C)=O)[C@H]6[C@H](OC(=O)c7ccccc7)[C@]7(O)C[C@H](OC(=O)[C@H](OC(=O)c8ccc(C=N[C@@H]9c%10cc%11c(cc%10[C@@H](c%10cc(OC)c(O)c(OC)c%10)[C@H]%10C(=O)OC[C@@H]%109)OCO%11)cc8)[C@@H](NC(=O)c8ccccc8)c8ccccc8)C(C)=C([C@@H](OC(C)=O)C(=O)[C@]56C)C7(C)C)cc3)C3COC(=O)C32)OCO4)cc(C)c1O (some centres not stated) > 50 µM

Which measured TGI value corresponds to N#CCCN(CCC#N)c1ccc(/C=C2\N=C(c3ccccc3)N(NC(=O)c3ccncc3)C2=O)cc1 ? > 100 µM

Which TGI value belongs to CC(C)Cn1cnnc1NS(=O)(=O)c1cc(C(=O)NN)c(Cl)cc1S ? > 10 µM

Fill blank: measured TGI of the compound Cc1ccc(S(=O)(=O)OC(C=O)C(O)C(O)COC(c2ccccc2)(c2ccccc2)c2ccccc2)cc1 (configuration not stated) is ____. 35.9 µM

Could you share which TGI value was measured for CNS(=O)(=O)NN(C)S(=O)(=O)c1ccc(C)cc1 ? > 100 µM
